# Target system: HLA-A2 (Homo sapiens)
Observation type: IC50 (nM)
Enter your answer as a number in nM; do not include the unit.

query: Item AIIRILQQL (modifications not checked) […] : provide IC50
result: 385
